test system: Leishmania donovani; test: Leishmania intramacrophage assay; assay type: functional, organism-based; parameters: scale not given: in the data most compounds retested in dose-response had high values; conditions: 30 µM; 30.03 µM
The campaign covered roughly 69,000 compounds. About 1,000 (1.4%) showed an effect of 50% or more. Only a selection was taken, and strong results are over-represented in it overall.
Recorded Percent Effect, one value per entry.
Measured attribute: Percent Effect (%)

> print(dat)
                                    compound  measured.attribute  observed.measurement
 1  CCO[C@@H]1CO[C@@]2(CCCN(C(=O)c3ccc(OC)c(F)c3)C2)C1      Percent Effect                 6.334
 2  COCc1nn(C(C)C)c2c1CCN(Cc1ccc(C)s1)C2.O=C(O)C(F)(F)F      Percent Effect                  26.5
 3  CCCc1n[nH]c(C2CN(C(=O)CCCn3cccn3)CCO2)n1 (stereo not drawn)      Percent Effect                 8.129
 4  COCCN1CCC(CN(CC2CCCO2)C(=O)COC)CC1 (stereo not drawn)      Percent Effect                -10.91
 5      CCCSCC(=O)NS(=O)(=O)c1ccc2c(c1)OCCO2      Percent Effect                 12.46
 6  O=C(NCc1ccccn1)NC1CCOc2ccccc21 (stereo not drawn)      Percent Effect                 24.88
 7  COc1ccccc1CCN(C)C(=O)NC(C)c1nncn1C (stereo not drawn)      Percent Effect                 13.36
 8  Cc1cc(C(=O)N2C[C@@H](C(=O)O)[C@H](c3ccccc3C)C2)c(C)o1      Percent Effect                -7.821
 9  Oc1cc(CCC2CCCCN2)cc(-c2ccncc2)c1 (stereo not drawn)      Percent Effect                 12.39
10  O=C(NCCC(=O)N1CCCc2ccccc21)c1c(O)cc(F)cc1F      Percent Effect                 50.32
11          O=C(NCCCN1CCc2ccccc2C1)c1cccnc1O      Percent Effect                 26.46
12  Cn1ccnc1CN1CCC2(CC1)CC(NC(=O)c1ccccn1)CO2.O=C(O)C(F)(F)F (stereo not drawn)      Percent Effect                 2.919
13   Clc1ccccc1C1(c2ccnc(-c3ccncc3)n2)CCNCC1      Percent Effect                 69.77
14  Cc1nn(C)c(Cl)c1C1CCCN1c1ncnc2sccc12 (stereo not drawn)      Percent Effect                 51.25
15       O=C(Cc1cccs1)NC1CCN(c2cccc(F)c2)CC1      Percent Effect                 26.53
16  Cc1cnn(CC2CN(CC(=O)N3CCc4ccccc43)CCO2)c1 (stereo not drawn)      Percent Effect                 26.31
17  O=C(NC1COC2(CCN(Cc3ccccn3)CC2)C1)c1ccccn1.O=C(O)C(F)(F)F (stereo not drawn)      Percent Effect                 99.23
18  COc1ccc(OCCc2sc(C3(O)CCCNCC3)nc2C)cc1.Cl (stereo not drawn)      Percent Effect                 10.27
19  CNS(=O)(=O)c1cccc(CNc2ccc(C(F)(F)F)nn2)c1      Percent Effect                 12.97
20  COc1ccc(OCc2sc(C3(O)CCCNCC3)nc2C)cc1.Cl (stereo not drawn)      Percent Effect                 9.769
21  COCCNC(=O)C[C@@H]1COC[C@H]2CN(C(=O)c3cnccn3)C[C@@H]12      Percent Effect                 9.909
22  CC(C)SCC(=O)N1CCc2c(nc(N(C)C)nc2N(C)C)C1      Percent Effect                 7.439
23  COCC(=O)NC1CC2(CCN(Cc3ccco3)CC2)c2ccccc21.O=C(O)C(F)(F)F (stereo not drawn)      Percent Effect                -18.66
